target: hGLP-1R (Homo sapiens, UniProt P43220); test: Functional cAMP activation in the presence of 0.1% casein (no HSA); assay type: cell-based; conditions: in the presence of 0.1% casein (no HSA); geometric mean; read-out: Relative cAMP EC50, hGLP-1R;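 further: intracellular cAMP rise after 30 min at 37 °C read by HTRF, normalized between buffer only (0%) and maximal control ligand (100%), four-parameter variable-slope fit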
Sequence (P43220 24-463): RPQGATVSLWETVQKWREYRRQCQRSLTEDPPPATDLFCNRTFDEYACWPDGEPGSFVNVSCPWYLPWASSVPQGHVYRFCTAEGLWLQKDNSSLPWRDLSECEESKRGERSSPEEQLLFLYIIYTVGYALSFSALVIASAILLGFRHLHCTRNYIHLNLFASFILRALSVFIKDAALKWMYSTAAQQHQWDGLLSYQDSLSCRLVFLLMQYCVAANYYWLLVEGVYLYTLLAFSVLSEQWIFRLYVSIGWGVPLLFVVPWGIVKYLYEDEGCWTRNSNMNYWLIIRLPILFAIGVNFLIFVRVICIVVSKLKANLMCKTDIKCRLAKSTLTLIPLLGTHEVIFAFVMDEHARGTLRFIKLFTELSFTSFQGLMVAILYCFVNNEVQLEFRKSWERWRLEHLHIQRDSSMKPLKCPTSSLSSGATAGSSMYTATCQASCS
Starred links: 1 amine or outer side, 2 acyl side, 3 side chain; linkers in the order of their positions; H or OH if unused. Non-standard residues stand in square brackets, D forms with d. Groups on a side chain read outwards from the residue. *: point of attachment. C20 diacid = O=C(O)CCCCCCCCCCCCCCCCCCC(=O)*; C18 diacid = O=C(O)CCCCCCCCCCCCCCCCC(=O)*; γGlu = O=C(O)[C@H](CCC(=O)[*:2])N[*:1]; αMe4Pal = C[C@](N)(Cc1ccncc1)C(=O)O; 4Pal = N[C@@H](Cc1ccncc1)C(=O)O; αMeL = CC(C)C[C@](C)(N)C(=O)O; Orn = NCCC[C@H](N)C(=O)O; AEEA = NCCOCCOCC(=O)O; Aib = CC(C)(N)C(=O)O
Readout label: EC50 (nM)
# value in nM; strip the unit string

Q: Provide only the value of recorded EC50 for H-Y[Aib]QGTFTSDFSK[αMeL]LDKK([AEEA-γGlu-C20 diacid])AQ[Aib]AFIEYLLAGGPSSGAPPPSGG-NH2 [Example 12]
Result: 1.46

Q: Specify reported EC50 for the substance shown: H-Y[Aib]QGTFTSDFS[Orn][αMeL]LDKK([AEEA-γGlu-γGlu-C18 diacid])AQ[Aib]AFIEYLLE[Aib]GHSSGAPPPSGS-NH2 [Example 243]
Result: 6.46

Q: Quickly give me recorded EC50 for H-Y[Aib]QGTFTSD[4Pal]SQ[αMeL]LDKK([dE-dE-γGlu-C18 diacid])AQ[αMe4Pal]AFIEYLIE[Aib]GPSSGAPPPSGS-NH2 [Example 921]
Result: 3.73

Q: Provide measured EC50 value, entry: H-Y[Aib]QGTFTSD[4Pal]S[Orn][αMeL]LDKK([γGlu-γGlu-C18 diacid])AQ[αMe4Pal]AFIE[αMe4Pal]LIE[Aib]GPSSGEPPPSGSE-NH2 [Example 990]
Result: 5.78
